protocol: in vitro
reported conditions: human
Answer each item with its documented CC50.
The response must be a number in µM with no trailing unit.

Item COc1nc(N)nc2c1ncn2C1O[C@H](COP(=O)(N[C@H](C(=O)OCC(C)(C)C)C(C)C)Oc2cc(C(C)(C)C)cc3ccc(C(C)(C)C)cc23)[C@@H](O)[C@@]1(C)O (stereo partly drawn) has what recorded CC50?
13

What about COc1nc(N)nc2c1ncn2C1O[C@H](COP(=O)(N[C@@H](C)C(=O)OCC(C)(C)C)Oc2ccccc2)[C@@H](O)[C@@]1(C)O (stereo partly drawn) ?
38

Another compound to look at: CCOc1nc(N)nc2c1ncn2C1O[C@H](COP(=O)(N[C@@H](C)C(=O)OC2CCOCC2)Oc2cccc3ccccc23)[C@@H](O)[C@@]1(C)O (stereo partly drawn)
47

Likewise for COc1nc(N)nc2c1ncn2C1O[C@H](COP(=O)(N[C@H](C(=O)OCc2ccc(F)cc2F)C(C)C)Oc2cccc3ccccc23)[C@@H](O)[C@@]1(C)O (stereo partly drawn) ?
16

# credit: patent US8759318B2
